molecular target: Platelet-derived growth factor receptor beta (Homo sapiens); conditions: at 0.1 µM;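 also: reported value is the mean percent inhibition of the kinase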
Measurement kind: inhibition (%)
Give bare numbers, in %.

Your task in this section: give inhibition for each listed record.
1. COc1cc(Nc2ncc3c(C)nc(-c4cccc(C(F)(F)F)c4)n3n2)cc(OC)c1OC
2. O=C1Nc2ccccc2/C1=C/Nc1ccc(-n2cncn2)cc1
3. C#Cc1cccc(Nc2ncnc3ccc(OCCCCNCCS(C)(=O)=O)cc23)c1
4. FC(F)(F)c1cccc(Nc2nccc(-c3cnn4nc(-c5ccccc5)ccc34)n2)c1
5. CS(=O)(=O)CCNCc1ccc(-c2ccc3ncnc(Nc4ccc(OCc5ccccc5)c(Br)c4)c3c2)o1

### Response
1. 10.3
2. 7.25
3. 9.53
4. 7.48
5. 3.75

# credit: ChEMBL document CHEMBL1961873
